- measured-on: T1, human IL-2Rγ (common cytokine receptor γ-chain) (human, UniProt P31785 23-262, limits assumed)
- T1 construct: Recombinant human IL-2Rγ protein coated on the ELISA plate or immobilised on the CM5 chip; also called hu IL-2R; CD132
- T1 sequence: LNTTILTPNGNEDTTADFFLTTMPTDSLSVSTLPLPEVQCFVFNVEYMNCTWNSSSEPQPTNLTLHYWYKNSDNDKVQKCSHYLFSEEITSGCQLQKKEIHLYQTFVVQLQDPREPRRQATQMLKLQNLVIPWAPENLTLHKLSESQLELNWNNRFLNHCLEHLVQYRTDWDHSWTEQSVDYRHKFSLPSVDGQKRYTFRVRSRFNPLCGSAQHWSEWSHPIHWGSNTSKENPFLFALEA
- assay-text: SPR off-rate ranking, periplasmic extract over immobilised human IL-2Rγ
I'd appreciate it if you could supply koff values for the items below.
Give bare numbers, in s⁻¹.

binder	koff [s⁻¹]
FJ1427_P035MP07F12 (VHH, Tested as soluble VHH fragment in periplasmic extract (P.E.); also called Clone nr; 670) VHH: EVQLVESGGGLVQAGDSLRLSCVASGRTLSRCAMGWFRKAPGKEREYVAISSWGGDTFYEDSVEGRFTFSRDNAKNTVYLQMNSLRPEDTAVYYCAAAPTSFATTAYSSSNSYAYWGQGTQVTVSS	0.00197
FJ1427_P035MP07F11 (VHH, Tested as soluble VHH fragment in periplasmic extract (P.E.); also called Clone nr) VHH: QVQLVESGGGLVQAGGSLRLSCAASGRTLSRLAMGWFRQAPGKEREFVAVNSWGGDTFYADSVEGRFTYSRDNAKSAVYLQMNSLQPEDTAVYYCAAAPTSFATTAYSSSNSYAYWGQGTQVTVSS	0.00131
FJ1427_P035MP07E11 (VHH, Tested as soluble VHH fragment in periplasmic extract (P.E.); also called Clone nr) VHH: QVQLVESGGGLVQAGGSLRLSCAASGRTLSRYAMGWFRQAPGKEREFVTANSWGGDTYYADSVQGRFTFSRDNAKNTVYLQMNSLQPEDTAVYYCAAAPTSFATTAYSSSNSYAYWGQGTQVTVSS	0.00304

From here, focus on the item given below.
Reported koff for FJ1427_P035MP07H11 (VHH, Tested as soluble VHH fragment in periplasmic extract (P.E.); also called Clone nr; 664) VHH: QVQLVESGGGLVQPGGSLRLSCAASGRTLSRYAMGWFRQAPGKDREFVAASSWGGDTFYADSVEGRFTFSRDNAENATYLQMNSLQPEDTAVYYCAAAPTSFATTAYSSSNSYGSWGQGTQVTVSS : what is it? 0.00252
